Assay: Luminescence Cell-Based Dose Confirmation HTS to Identify Activators of 5'UTR Stem-Loop Driven Alpha-Synuclein mRNA Translation in H4 Neuroglioblastoma Cells. [Related pubchem assays: 1829 (Project Summary), 1814 (Primary HTS)]
Format: functional
Calls of active or inactive are those of the source. No stated cut-off is given here; in the data, actives have a measured EC50 and inactives only a lower limit.
This listing pairs compounds with measured EC50.

>>> value_reported("CSc1nnc2c(n1)OC(C)N(C(=O)c1ccccc1)c1ccccc1-2 (stereo not drawn)")
"15.4 µM (active)"
>>> value_reported("Cc1ccc2[nH]c(/C(C#N)=C/c3c[nH]nc3-c3ccc(F)cc3)nc2c1")
"> 120 µM (not active)"

With those in mind, consider the next compound.
Form field: reported EC50 of "C[n+]1c(/C=C/c2ccc(O)cc2)ccc2ccccc21" 12.5 µM (active)
